src = paper PMC8771711

Entries annotated with measured pIC50
# System: SW480, human primary colon cancer cell line
# test_protocol: MTT assay, cytotoxicity in SW480
# Format: cell-based
# stated_conditions: Homo sapiens, SW480; MTT, 72 h, mean ± SD
Note on units: pIC50 is unitless, being -log10 of a concentration expressed in mol/L.

>  <compound>
CC[C@@H](C(=O)[C@@H](C)[C@@H](O)[C@H](C)CCc1ccc(C)c(O)c1C(=O)OCCCCn1cc(F)c(=O)[nH]c1=O)[C@H]1O[C@](CC)([C@H]2CC[C@](O)(CC)[C@H](C)O2)C[C@@H]1C [Compound 8, LAS–5-Fluorouracil Conjugate]

>  <readout_name>
pIC50

>  <measurement>
4.17

$$$$

Query: Provide one value: measured pIC50 of C=C(C)[C@@H]1CC[C@]2(C(=O)O)CC[C@]3(C)[C@H](CC[C@@H]4[C@@]5(C)CC[C@H](O)C(C)(C)[C@@H]5CC[C@]43C)[C@@H]12 [BET, betulinic acid, reference compound]
Response: 3.98

====

# System: HaCaT, human immortalized keratinocyte cell line
# test_protocol: MTT assay, cytotoxicity in HaCaT
# Assay type: cell-based
# stated_conditions: Homo sapiens, HaCaT, 72 h, mean ± SD, nontumor cells
Label rule met when IC50 is strictly below 30 µM; at or above that, label rule not met.

Here are 5 compounds together with their reported answers.
>  <compound>
BrCCC[P+](c1ccccc1)(c1ccccc1)c1ccccc1.[Br-] [TPP, reference compound]

>  <experimental_target>
HaCaT, human immortalized keratinocyte cell line

>  <category_label>
rule met

$$$$
>  <compound>
O=c1[nH]c(=O)n(CCCCBr)cc1F [Compound 1]

>  <experimental_target>
HaCaT, human immortalized keratinocyte cell line

>  <category_label>
rule not met

$$$$
>  <compound>
O=c1[nH]c(=O)n(CCCCCCBr)cc1F [Compound 2, 1-(6-Bromohexyl)-5-fluorouracil]

>  <experimental_target>
HaCaT, human immortalized keratinocyte cell line

>  <category_label>
rule not met

$$$$
>  <compound>
CC[C@@H](C(=O)[C@@H](C)[C@@H](O)[C@H](C)CCc1ccc(C)c(O)c1C(=O)OCCC[P+](c1ccccc1)(c1ccccc1)c1ccccc1)[C@H]1O[C@](CC)([C@H]2CC[C@](O)(CC)[C@H](C)O2)C[C@@H]1C [Compound 13, LAS–TPP Conjugate]

>  <experimental_target>
HaCaT, human immortalized keratinocyte cell line

>  <category_label>
rule met

$$$$
>  <compound>
CC[C@@H](C(=O)[C@@H](C)[C@@H](O)[C@H](C)CCc1ccc(C)c(O)c1C(=O)OC[C@H]1O[C@@H](n2ccc(N)nc2=O)C(F)(F)[C@@H]1O)[C@H]1O[C@](CC)([C@H]2CC[C@](O)(CC)[C@H](C)O2)C[C@@H]1C [Compound 12, LAS–Gemcitabine Conjugate]

>  <experimental_target>
HaCaT, human immortalized keratinocyte cell line

>  <category_label>
rule met

$$$$

Here is the next item to consider.
Query: Strictly below 30 µM in IC50? CC[C@@H](C(=O)[C@@H](C)[C@@H](O)[C@H](C)CCc1ccc(C)c(O)c1C(=O)OCCCCCCBr)[C@H]1O[C@](CC)([C@H]2CC[C@](O)(CC)[C@H](C)O2)C[C@@H]1C [Compound 5]
Response: rule not met
